Test: Agilent ZORBAX 300 SB-C18, 150 × 1 mm, 3.5 µm; A: water + 0.01% heptafluorobutyric acid; B: acetonitrile + 0.01% heptafluorobutyric acid; gradient (min/%B) 0/0 100/90
Details: stereoisomer not certain
recorded-metric: log10 of LC retention time (log10 of the value in min)
The base-10 logarithm of LC retention time, taken with LC retention time in min, is what appears here.

Please give the measured log10 of LC retention time for this compound: `CCCC(=O)Nc1ccc(N)cc1` 0.89

Proceed to `CC(C)(C)c1ccc2[nH]c3c(c2c1)CCCC3=O` 1.22

Proceed to `Cc1[nH]n(-c2ccccc2)c(=O)c1C=O` 0.91

Proceed to `Nc1ncc2c(n1)CCC2` 0.84

Proceed to CC(CCc1ccc(O)cc1)NCCc1ccc(O)c(O)c1 (stereo not drawn) 0.95

Proceed to `CCN(CC)c1ccc(CCN)cc1` 0.92

Proceed to `CC(C)(CO)Nc1c[nH]c(=O)[nH]c1=O` 0.78

Proceed to `CCCCCCCCCCCN` 1.09

Proceed to `CC1(C)CC(=O)c2c(-c3ccccc3)nc3ccc4ccccc4c3c2C1` 1.23

Proceed to `CCCNC(=O)c1c[nH]c2ccccc12` 1.00

Proceed to `Cn1c(=O)cc(C(=O)O)[nH]c1=O` 0.20

Proceed to `O=P(O)(O)CN(CP(=O)(O)O)CP(=O)(O)O` 0.03

Proceed to `CC1(C)Cc2ccccc2C(C2=C(O)CCCC2=O)=N1` 1.00

* * *

Experiment: Agilent ZORBAX 300 SB-C18, 150 × 1 mm, 3.5 µm; A: water + 0.01% heptafluorobutyric acid; B: acetonitrile + 0.01% heptafluorobutyric acid; gradient (min/%B) 0/0 100/90
Details: stereoisomer not certain
Exercise: for every item that follows, state its recorded LC retention time.
Numbers only here, please. The scale is min.

Please give the measured LC retention time for this molecule: COc1cccc2c1NC(CCc1ccccc1N)CC2 (stereo not drawn) 12.1

Proceed to `Cc1ccc2cc(C(=O)O)c(=O)[nH]c2c1` 9.64

Proceed to `CCN(CC)CCNc1cccc2ccccc12` 10.1

Proceed to `CC(=O)c1c[nH]c2ccccc12` 9.25

Proceed to `NC(=O)N1CCC(CCCC2CCN(C(N)=O)CC2)CC1` 9.11

Proceed to `Cc1[nH]c2ccccc2c1CCNC(=O)CN1C(=O)c2ccccc2C1=O` 12.4

Proceed to `O=C(Nc1cccnc1)c1cnccn1` 7.28

Proceed to `CC(=O)Nc1ccc(C(=O)NCc2ccco2)cc1` 8.96

Proceed to `COC(=O)c1ccc(C(=O)OC)c(NC(=O)CC(c2ccccc2)c2ccccc2)c1` 18

Proceed to `C=CCNc1ccccc1` 9.55

Proceed to `COc1ccc(N)cc1` 7.59

Proceed to `CNCCc1ccccn1` 6.92

Proceed to `CSC(=N)N` 4.66

Proceed to `Cc1ccc(NC(=O)C(=O)NCCN2CCN(C(=O)c3ccccc3)CC2)cc1` 9.8

Proceed to `Nc1ccccc1OCCOc1ccccc1N` 8.96

Proceed to `O=C(CCc1ccccc1)NNC(=S)NCc1ccccc1` 12.4

Proceed to `CCCCCCCCCn1cc[n+](CCCCCCCCC)c1C` 17.8

Proceed to `CN(C)CCNC1=CC(=O)CC(C)(C)C1` 7.29

* * *

Experiment: Agilent ZORBAX 300 SB-C18, 150 × 1 mm, 3.5 µm; A: water + 0.01% heptafluorobutyric acid; B: acetonitrile + 0.01% heptafluorobutyric acid; gradient (min/%B) 0/0 100/90
Conditions: stereoisomer not certain
Exercise: for every item that follows, state its recorded LC retention time.
Numbers only here, please. The scale is min.

Please give the measured LC retention time for this compound: `O=C(CCc1ccccc1)NN=Cc1ccccc1O` 13.3

Proceed to `Cc1ccc(-c2cc3ccccc3[nH]2)c(C)c1` 17.6

Proceed to `CC(C)c1ccc(C(=O)CCN(C)C)cc1` 9.8

Proceed to `c1ccc(C(NCc2cccs2)c2ccccc2)cc1` 11.8

Proceed to `Cc1ccc(-n2cccc2)c(O)c1` 13.1

Proceed to `Cc1cccc(NC(=O)c2ccc3nccnc3c2)n1` 9.62

Proceed to `O=c1ccc2nc3ccc(O)cc3oc-2c1` 9.57

Proceed to `O=C(Nc1ccc(C(=O)c2ccccc2)cc1)c1ccc(-c2ccccc2)cc1` 17.8

Proceed to `CCC(N)=O` 2.3

Proceed to `CC(C)(N)CO` 4.39

Proceed to `Cc1cc(C)nc(NC(N)=NCCC(C)C)n1` 10.3

Proceed to `Cc1ccc(CN)cc1` 7.92

Proceed to `COc1ccccc1-n1c(=O)[nH][nH]c1=O` 6.75

Proceed to `CC(C)(C)c1ccc(C(=O)NN=Cc2c[nH]c3ccccc23)cc1` 14.2

Proceed to `CC(C)c1cccc(C(C)C)c1NC(=O)COC(=O)CNC(=O)c1ccc(C(C)(C)C)cc1` 17.6

Proceed to `CN(C)c1nc(N(C)C)nc(N(C)C)n1` 9.15

Proceed to `S=C1NCN(C2CCCCC2)CN1` 8.07

Proceed to `NCCCCCC(=O)O` 6.81

Proceed to `COc1ccc(C=CC(=O)C=Cc2ccc(OC)cc2OC)c(OC)c1` 16.6

Proceed to `Nc1ccncc1` 5.68

Proceed to `CC(C)(C=O)CN1CCCC1` 6.76

Proceed to `CCCCCCCC(N)=O` 11

Proceed to `CCCCC[N+]1(C)CCCC1` 7.4

Proceed to `CC(=O)Nc1cccc2ncccc12` 6.92

Proceed to `CC1(C)CC(=O)NC(=O)C1` 7.12

Proceed to COc1ccc(N2CC(C(=O)Nc3c(C)cc(C)cc3C)CC2=O)cc1 (stereo not given) 12.5

Proceed to `CN(C)CCN(C)C` 7.04

Proceed to `O=C1CNCC(=O)N1CCc1ccccc1` 9.32

Proceed to `COc1ccc(N2CCCC2=O)cc1` 9.78

Proceed to `c1cnc2[nH]ccc2c1` 7.27

Proceed to `Cc1nnc(Oc2ccccc2)c2ccccc12` 10.8

Proceed to `Cc1cccc(Nc2cc(=O)[nH]c(=O)[nH]2)c1C` 8.71

Proceed to `Cc1ccc2c(CN3CCNCC3)cc(=O)oc2c1` 8.81

Proceed to `O=c1[nH]c2ccccc2c(=O)n1CCO` 7.39

Proceed to `CC1(C)CC(NC(=O)NC2CCCCC2)CC(C)(C)N1` 8.78

Proceed to `Nc1cccc(C(=O)O)c1N` 10.6

Proceed to `Cc1cccc(Cc2cnc[nH]2)c1C` 9.65

Proceed to `Nc1cccc2c1CCC2` 8.43

Proceed to `CCCC[N+]1(CCCC)CC[N+](CCCC)(CCCC)CC1` 9.16

Proceed to CC(c1ccccc1)C(N)C(=O)O (stereo not given) 7.08

Proceed to `Cc1nc(C)c(C)nc1C` 7.72

Proceed to `CC(=O)Nc1ccc(C(=O)NCCc2c[nH]c3ccc(C)cc23)cc1` 11.1

Proceed to `O=c1c2ccccc2nc(-c2ccccc2)n1-c1ccccc1` 13.8

Proceed to COc1ccc2c(c1)CCC1C2CCC2(C)C(=O)C(=Cc3ccccc3)CC12 (stereo not given) 21.4

Proceed to `CC1(C)CC(NC(=O)c2ccccc2C(=O)NC2CC(C)(C)NC(C)(C)C2)CC(C)(C)N1` 7.61

* * *

Experiment: Agilent ZORBAX 300 SB-C18, 150 × 1 mm, 3.5 µm; A: water + 0.01% heptafluorobutyric acid; B: acetonitrile + 0.01% heptafluorobutyric acid; gradient (min/%B) 0/0 100/90
Conditions: stereoisomer not certain
Field: class. Source value: LC retention time. Ranges: bottom range: < 8 min; center range: ≥ 8 min and < 10 min; top range: ≥ 10 min

Band for the recorded LC retention time of `CCC(O)(CC)c1ccccc1N` ? center range

Proceed to `CCN(CC)c1ccc(C(=O)NC(c2ccccc2)c2ccccc2)cc1` top range

Proceed to `CCOc1cc(NC(C)=O)ccc1C(=O)NN=Cc1cccc(Oc2ccccc2)c1` top range

Proceed to `CC(=O)NNC(=O)c1ccncc1` bottom range

Proceed to CC1CCCCN1C(=O)c1ccccc1N (stereo not drawn) top range

Proceed to `CC(C)(C)NC(=S)NCc1ccccc1` top range

Proceed to `CCCCN` bottom range

Proceed to `Cc1cccn2cc(-c3cccs3)cc12` top range

Proceed to `NCc1ccccc1` bottom range

Proceed to `C1CCC(OCCNCCOC2CCCCC2)CC1` top range

Proceed to CCC(C)n1cc(C=C2NC(=O)NC2=O)c2ccccc21 (stereo not drawn) top range

Proceed to `CC(C)(C)c1ccc(-c2nnnn2-c2ccccc2)cc1` top range

Proceed to `CCCCNCC(=O)Nc1ccc(NC(=O)CNCCCC)cc1` center range

Proceed to `CNc1ccncc1` bottom range

Proceed to `c1ccc(CNCCc2csc3c2CCCC3)cc1` top range

Proceed to `CN(C)C=CC(=O)c1ccc2ccccc2c1` top range

Proceed to `Cc1ccc(NC(=O)C=CC(=O)O)c(C)c1` top range

Proceed to CC(=O)NC(NC(C)=O)C(O)C(O)C(O)C(O)CO (stereo not drawn) bottom range

Proceed to `CNCc1cccs1` bottom range

Proceed to `COC(=O)c1[nH]c2ccccc2c1-n1cccc1` top range

Proceed to `Cc1cc(C(=O)N2CCCCC2)c2c(=O)n(CC(=O)N3CCc4ccccc43)c(=O)n(C)c2n1` top range

Proceed to `CN(c1ccccc1)c1ccc(C=C2CCc3ccccc3C2=O)cc1` top range

Proceed to CCc1ccc(N2CC(C(=O)O)CC2=O)cc1 (stereo not drawn) top range

Proceed to `Cc1ccc(CNC(C)(C)C)s1` center range

Proceed to `S=c1nc(C2CCCCC2)[nH][nH]1` center range

Proceed to `c1ccc(C(c2ccccc2)c2nc(-c3ccncc3)no2)cc1` top range

Proceed to `O=C(O)c1cc(-c2ccccc2)c(C(=O)O)cn1` bottom range

Proceed to `COc1ccc(NC(=O)c2ccc3c(c2)NC(=O)CO3)cc1OC` center range

Proceed to `c1ccc2c(c1)[nH]c1ccccc12` top range

Proceed to `COCCNC(=O)Cn1c(=O)n(C)c2ccccc21` center range

Proceed to `Cc1nc2ccccc2nc1CSc1cccc2cccnc12` top range

Proceed to `NCCc1cccs1` bottom range

Proceed to `CC(=CCc1ccccc1)N=Nc1nc(=S)[nH][nH]1` top range

Proceed to `CC(C)Cn1c2ccccc2c2ccccc21` top range

Proceed to `O=c1ccc2ccccc2[nH]1` center range

Proceed to `CN(C)c1ccc(N)cc1` bottom range
